Experiment: E. coli acrAB mutant growth effects, primary screen, E. coli filamentation inducers, strain DRC39, OD650, 48 h (AID 1179);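 also: screen aims at cell division blockers that make cells filament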
Conditions: E. coli DRC39 delta-acrAB growth, higher = more signal, called active from +8 up or from −8 down
Threshold check on z-score: at or above -0.2 gives t, strictly below gives f.

q: Would you say CC(CCN1CCCCc2nc(C)c(C)cc21)=NOC[C@@H](O)COCc1ccco1 shows z-score at minimum -0.2?
a: t

q: Would you say O=C(NN=C1C[C@@H](O)[C@@H](O)[C@@H]2[C@@H]3C(=O)N(Cc4ccccc4)C(=O)[C@@H]3CC[C@@H]12)OCc1ccccc1 shows z-score at minimum -0.2?
a: t

q: Would you say CO[C@@H]1COC(=O)[C@@H](C)NC(=O)CC=C[C@@H](C)[C@H](NS(=O)(=O)c2ccc(C)cc2)COC(=O)[C@H](C)NC(=O)CC=C[C@H]1C shows z-score at minimum -0.2?
a: t

q: Would you say COc1cccc([C@H]2Oc3ccc(OC)cc3C(=NO[C@@H]3O[C@H](COC(C)=O)[C@@H](OC(C)=O)[C@H](OC(C)=O)[C@H]3OC(C)=O)[C@@H]2O)c1 shows z-score at minimum -0.2?
a: f

q: Would you say C=Cc1ccc([C@H]2N[C@H](C(=O)O)CC[C@@H]2C)cc1 shows z-score at minimum -0.2?
a: t

q: Would you say CCOC(=O)[C@H](CC(C)C)NC(=O)CCC1CC(OC(=O)NCCc2ccc(F)cc2)CC2(CCCC(COC(=O)NCCC(C)C)O2)O1 (some centres undefined) shows z-score at minimum -0.2?
a: t

q: Would you say COc1ccc(O[C@H]2C=C[C@@H](c3ccccc3)O[C@@H]2COC(=O)CCC(C)=NOC[C@@H](O)[C@H]2O[C@@H]3OC(C)(C)O[C@@H]3[C@H]2O)cc1 shows z-score at minimum -0.2?
a: f

q: Would you say CCOC(=O)[C@H](CC(C)C)NC(=O)CCC1CC(OC(=O)NCCc2ccc(F)cc2)CC2(CCCC(COC(=O)NCC(c3ccccc3)c3ccccc3)O2)O1 (some centres undefined) shows z-score at minimum -0.2?
a: f

q: Would you say CCOC(=O)[C@H](Cc1ccccc1)NC(=O)CCC1CC(OC(=O)NCc2cccc3ccccc23)CC2(CCCC(COC(=O)NCC(c3ccccc3)c3ccccc3)O2)O1 (some centres undefined) shows z-score at minimum -0.2?
a: f

q: Would you say C#CCCCON=C1C[C@@H](O)[C@@H](O)[C@@H]2[C@@H]3C(=O)N(c4ccc(F)cc4F)C(=O)[C@@H]3CC[C@@H]12 shows z-score at minimum -0.2?
a: t

q: Would you say CCOC(=O)CCN1C(=O)[C@H]2[C@H]3[C@H](O)[C@H](O)CC(=NOCc4ccccc4)[C@H]3CC[C@H]2C1=O shows z-score at minimum -0.2?
a: t

q: Would you say COc1cccc([C@H]2Oc3ccc(OC)cc3C(=NOC[C@@H](C)[C@H](OCc3ccccc3)C(C)C)[C@@H]2O)c1 shows z-score at minimum -0.2?
a: f

q: Would you say C[C@@H]1CC[C@H]2C(=O)O[C@@H](COc3ccc(C(C)(C)C)cc3)CN2[C@@H]1c1ccc(Br)cc1 shows z-score at minimum -0.2?
a: t

q: Would you say CCN1C(=O)[C@H]2[C@H]3[C@H](O)[C@H](O)CC(=O)[C@H]3CC[C@H]2C1=O shows z-score at minimum -0.2?
a: t
